Target: alpha2C receptor (Homo sapiens)
Construct: expressed in transfected cells; host or cells: NIH-3T3
Sequence (P18825 1-462): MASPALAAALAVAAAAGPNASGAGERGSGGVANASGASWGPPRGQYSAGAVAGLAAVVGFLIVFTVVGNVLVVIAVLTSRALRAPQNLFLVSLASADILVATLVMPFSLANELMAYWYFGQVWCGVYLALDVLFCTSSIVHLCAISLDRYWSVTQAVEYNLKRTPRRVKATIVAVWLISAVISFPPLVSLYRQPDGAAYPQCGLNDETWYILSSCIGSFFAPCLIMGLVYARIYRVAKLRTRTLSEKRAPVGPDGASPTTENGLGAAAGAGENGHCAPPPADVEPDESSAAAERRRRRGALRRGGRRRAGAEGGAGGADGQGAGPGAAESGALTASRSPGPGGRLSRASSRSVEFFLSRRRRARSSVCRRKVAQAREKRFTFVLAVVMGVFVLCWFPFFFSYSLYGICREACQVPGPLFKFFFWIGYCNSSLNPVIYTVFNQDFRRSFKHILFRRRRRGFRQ
Assay: RSAT assay, alpha 2C
Format: cell-based
MEASURED_QUANTITY: log10 of EC50 (log10 of the value in nM)

SMI | RECORDED_RESULT
Clc1cccc(CNC2=NCCS2)c1Cl | 2.40
Fc1c(I)cccc1CNC1=NCCS1 | 1.94
Clc1cccc(CNC2=NCCO2)c1Cl | 1.96
Brc1ccccc1CNC1=NCCO1 | 1.93
Brc1ccccc1CNC1=NCCS1 | 2.28
Cc1cccc(CNC2=NCCO2)c1C | 1.04
Fc1cccc(CNC2=NCCO2)c1 | 1.23
FC(F)Oc1ccccc1CNC1=NCCO1 | 1.11
